Values from patent US8598200B2

target: human KAT II (hKAT II) enzyme (Homo sapiens (Human)); experiment: KAT II Inhibition Spectra Assay; format: biochemical; conditions: decrease in OD370, L-kynurenine substrate, 37° C. for 15-20 h; values marked ^1 are the average of 2 IC50 determinations; read-out: KATII IC50 (nM; single determination unless otherwise indicated)
Reported IC50 values for a set of compounds

cpd_smiles | IC50, nM
N[C@H]1Cc2c(c(C(F)(F)F)nn2Cc2ccccc2)N(O)C1=O | 42.7
Cn1ncc2c1N(O)C(=O)[C@@H](N)C2 | 329
COc1ccccc1Cn1cc2c(n1)N(O)C(=O)[C@@H](N)C2 | 50.2
Cn1nc2c(c1Cc1ccc(C(F)(F)F)cc1)C[C@H](N)C(=O)N2O | 37
COc1ccc(Cc2nn(C)c3c2C[C@H](N)C(=O)N3O)cc1 | 440
N[C@H]1Cc2cn(Cc3ccc4ccccc4c3)nc2N(O)C1=O | 117
CC(C)n1cc2c(n1)N(O)C(=O)[C@@H](N)C2 | 153
N[C@H]1Cc2nn(Cc3ccccc3)cc2N(O)C1=O | 182
COc1cccc(Cn2cc3c(n2)N(O)C(=O)[C@@H](N)C3)c1 | 8.93
N[C@H]1Cc2cn(C3CCC3)nc2N(O)C1=O | 81.3

* * *

molecular target: human KAT II (hKAT II) enzyme (Homo sapiens (Human), UniProt Q8N5Z0); test: KAT II Inhibition Spectra Assay; assay type: biochemical; conditions: decrease in OD370, L-kynurenine substrate, 37° C. for 15-20 h; values marked ^1 are the average of 2 IC50 determinations; read-out: KATII IC50 (nM; single determination unless otherwise indicated)
Sequence (Q8N5Z0 30-425): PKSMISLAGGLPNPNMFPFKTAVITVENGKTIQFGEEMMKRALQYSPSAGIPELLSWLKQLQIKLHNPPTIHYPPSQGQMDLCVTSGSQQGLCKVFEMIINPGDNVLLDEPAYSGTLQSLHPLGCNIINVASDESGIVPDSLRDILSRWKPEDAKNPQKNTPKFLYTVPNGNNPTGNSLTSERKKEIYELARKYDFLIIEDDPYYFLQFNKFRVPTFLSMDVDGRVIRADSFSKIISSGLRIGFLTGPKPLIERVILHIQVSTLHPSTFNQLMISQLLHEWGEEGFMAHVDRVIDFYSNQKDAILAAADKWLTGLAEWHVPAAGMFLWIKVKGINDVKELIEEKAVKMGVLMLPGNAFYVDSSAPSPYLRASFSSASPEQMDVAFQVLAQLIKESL
Reported IC50 values for a set of compounds

compound | IC50, nM
Cn1nc2c(c1Cc1ccccc1C(F)(F)F)C[C@H](N)C(=O)N2O [Example 26] | 40.7
N[C@H]1Cc2cn(-c3ccc(C(F)(F)F)cc3)nc2N(O)C1=O [Example 29] | 31.6
N[C@H]1Cc2cn(Cc3ccc(OC(F)(F)F)cc3)nc2N(O)C1=O [Example 6] | 43.6
CCn1nc2c(c1Cc1ccccc1)C[C@H](N)C(=O)N2O [Example 23] | 24.3
N[C@H]1Cc2cn(Cc3ccccc3)nc2N(O)C1=O [Example 1] | 59.4
Cn1nc2c(c1Cc1cccc(C(F)(F)F)c1)C[C@H](N)C(=O)N2O [Example 25] | 42.2
COc1cccc(Cc2nn(C)c3c2C[C@H](N)C(=O)N3O)c1 [Example 22] | 65.6
N[C@H]1Cc2c(cnn2Cc2ccccc2)N(O)C1=O [Example 4] | 22.5
COc1ccc(Cn2cc3c(n2)N(O)C(=O)[C@@H](N)C3)cc1 [Example 15] | 28.3
Cc1c2c(nn1Cc1ccccc1)N(O)C(=O)[C@@H](N)C2 [Example 12] | 81.6
Cn1nc(Cc2ccccc2)c2c1N(O)C(=O)[C@@H](N)C2 [Example 2] | 63.7
N[C@H]1Cc2cn(-c3ccccc3C(F)(F)F)nc2N(O)C1=O [Example 28] | 38.8
Cn1nc2c(c1Cc1ccccc1)C[C@H](N)C(=O)N2O [Example 3] | 11.5
N[C@H]1Cc2cn(-c3ccccc3)nc2N(O)C1=O [Example 14] | 24.3
CC(C)n1nc2c(c1Cc1ccccc1)C[C@H](N)C(=O)N2O [Example 24] | 63
N[C@H]1Cc2cn(-c3cccc(C(F)(F)F)c3)nc2N(O)C1=O [Example 7] | 74.7
Cc1c2c(nn1-c1ccccc1)C[C@H](N)C(=O)N2O [Example 17] | 2010
N[C@H]1Cc2cn(Cc3cccc4ccccc34)nc2N(O)C1=O [Example 8] | 36
